Each entry below carries its recorded LYMPHOCYTE.
# Species on record: Rattus norvegicus
# Protocol Description: DrugMatrix - Regimen: Daily Repeat
# Format: toxicity, organism-based, Sprague-Dawley
# Design: regimen Daily Repeat, gender Male, age 6-8 weeks
# Assay Conditions: in vivo, po, 50 mg/kg, 120 h, tissue Blood, route oral GAVAGE, dose level Low, time 5 day, vehicle .5 % CMC

{"columns": ["Compound", "LYMPHOCYTE [%]"],
 "data": [
  ["NC1CCN(c2nc3c(cc2F)c(=O)c(C(=O)O)cn3-c2ccc(F)cc2F)C1 (centres undefined)", 93.33],
  ["CCN1CCC[C@H]1CNC(=O)c1cc(S(N)(=O)=O)ccc1OC [LEVOSULPIRIDE]", 80.67],
  ["Cc1cccc(C)c1OCC(C)N (centres undefined)", 88],
  ["CN(C)[C@@H]1C(O)=C(C(N)=O)C(=O)[C@@]2(O)C(O)=C3C(=O)c4c(O)ccc(Cl)c4[C@@](C)(O)[C@H]3C[C@@H]12", 93.33]
]}

====

# Species: Rattus norvegicus
# Protocol Description: DrugMatrix - Regimen: Daily Repeat
# Type: toxicity, organism-based, Sprague-Dawley
# Parameters: regimen Daily Repeat, gender Male, age 6-8 weeks
# Assay Conditions: in vivo, sc, 0 mg/kg, 72 h, tissue Blood, route subcutaneous, dose level Control, time 3 day, […]

{"columns": ["Compound", "ABSOLUTE EOSINOPHIL (CELLS/uL)"],
 "data": [
  ["Oc1c(Cl)cc(Cl)c(Cl)c1Cc1c(O)c(Cl)cc(Cl)c1Cl", 92.33],
  ["CCC(=O)O[C@]1(C(=O)CCl)[C@@H](C)C[C@H]2[C@@H]3CCC4=CC(=O)C=C[C@]4(C)[C@@]3(F)[C@@H](O)C[C@@]21C [CLOBETASOL PROPIONATE]", 42.67],
  ["CC(C)(C)CC(C)(C)c1ccc(OCCOCC[N+](C)(C)Cc2ccccc2)cc1.[Cl-] [BENZETHONIUM CHLORIDE]", 92.33],
  ["CCN(CC)CCOCCC1=CCC2CC1C2(C)C (stereo not given)", 0],
  ["O=C(Nc1ccc(Br)cc1)c1cc(Br)cc(Br)c1O", 42.67]
]}

====

# Species on record: Rattus norvegicus
# Protocol Description: DrugMatrix - Regimen: Daily Repeat
# Assay type: toxicity, organism-based, Sprague-Dawley
# Parameters: regimen Daily Repeat, gender Male, age 6-8 weeks
# Assay Conditions: in vivo, po, 2000 mg/kg, 72 h, tissue Plasma, route oral GAVAGE, dose level High, time 3 day, vehicle .5 % CMC
Each entry below carries its recorded CHOLESTEROL.

{"columns": ["Molecule", "Readout Units", "CHOLESTEROL"],
 "data": [
  ["O=C1Nc2ccc(Cl)cc2C(c2ccccc2Cl)=NC1O (stereo unspecified)", "mg/dL", 119.67],
  ["CN(C/C=C/C#CC(C)(C)C)Cc1cccc2ccccc12", "mg/dL", 105.33],
  ["CC1(C)S[C@@H]2[C@H](NC(=O)[C@H](N)c3ccccc3)C(=O)N2[C@H]1C(=O)O", "mg/dL", 94.33],
  ["NC1CCN(c2nc3c(cc2F)c(=O)c(C(=O)O)cn3-c2ccc(F)cc2F)C1 (stereo unspecified)", "mg/dL", 79],
  ["COc1cc2nc(N3CCN(C(=O)c4ccco4)CC3)nc(N)c2cc1OC", "mg/dL", 68.33],
  ["CN/C(=N/CCSCc1nc[nH]c1C)NC#N", "mg/dL", 86.67]
]}
